Target system: PI3Kα H1047R (T47D cells) (Homo sapiens, UniProt P42336, H1047R)
Construct: endogenous in cells; host or cells: T47D cells
Sequence (P42336 whole entry H1047R): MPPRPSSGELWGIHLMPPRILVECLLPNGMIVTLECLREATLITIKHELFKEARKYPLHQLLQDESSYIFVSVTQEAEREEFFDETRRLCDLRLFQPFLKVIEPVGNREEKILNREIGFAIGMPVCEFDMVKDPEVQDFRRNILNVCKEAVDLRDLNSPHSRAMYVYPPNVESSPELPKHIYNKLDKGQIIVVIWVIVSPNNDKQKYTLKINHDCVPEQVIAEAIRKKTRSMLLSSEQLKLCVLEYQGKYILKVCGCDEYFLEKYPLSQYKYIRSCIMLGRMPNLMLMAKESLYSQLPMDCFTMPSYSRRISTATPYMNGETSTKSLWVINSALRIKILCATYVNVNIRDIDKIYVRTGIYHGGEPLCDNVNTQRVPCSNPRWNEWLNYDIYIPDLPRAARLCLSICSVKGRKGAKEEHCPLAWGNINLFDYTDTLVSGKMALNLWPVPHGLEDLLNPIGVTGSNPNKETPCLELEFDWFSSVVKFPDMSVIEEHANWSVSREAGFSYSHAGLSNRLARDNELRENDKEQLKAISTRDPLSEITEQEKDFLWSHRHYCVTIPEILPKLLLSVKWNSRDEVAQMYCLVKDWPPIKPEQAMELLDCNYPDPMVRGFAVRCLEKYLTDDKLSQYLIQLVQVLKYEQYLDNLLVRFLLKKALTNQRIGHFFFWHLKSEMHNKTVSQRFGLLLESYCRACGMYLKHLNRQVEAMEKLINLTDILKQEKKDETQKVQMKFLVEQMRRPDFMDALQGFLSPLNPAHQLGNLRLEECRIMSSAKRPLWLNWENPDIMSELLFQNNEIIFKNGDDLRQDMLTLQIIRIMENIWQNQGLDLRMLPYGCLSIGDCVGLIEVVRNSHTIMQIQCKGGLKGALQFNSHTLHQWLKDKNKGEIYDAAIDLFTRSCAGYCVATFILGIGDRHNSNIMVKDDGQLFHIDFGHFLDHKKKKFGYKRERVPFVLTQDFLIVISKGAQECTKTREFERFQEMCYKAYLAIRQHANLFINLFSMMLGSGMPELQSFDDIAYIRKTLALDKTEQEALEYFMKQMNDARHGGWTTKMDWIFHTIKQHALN
Sequence (P27986 whole entry partner): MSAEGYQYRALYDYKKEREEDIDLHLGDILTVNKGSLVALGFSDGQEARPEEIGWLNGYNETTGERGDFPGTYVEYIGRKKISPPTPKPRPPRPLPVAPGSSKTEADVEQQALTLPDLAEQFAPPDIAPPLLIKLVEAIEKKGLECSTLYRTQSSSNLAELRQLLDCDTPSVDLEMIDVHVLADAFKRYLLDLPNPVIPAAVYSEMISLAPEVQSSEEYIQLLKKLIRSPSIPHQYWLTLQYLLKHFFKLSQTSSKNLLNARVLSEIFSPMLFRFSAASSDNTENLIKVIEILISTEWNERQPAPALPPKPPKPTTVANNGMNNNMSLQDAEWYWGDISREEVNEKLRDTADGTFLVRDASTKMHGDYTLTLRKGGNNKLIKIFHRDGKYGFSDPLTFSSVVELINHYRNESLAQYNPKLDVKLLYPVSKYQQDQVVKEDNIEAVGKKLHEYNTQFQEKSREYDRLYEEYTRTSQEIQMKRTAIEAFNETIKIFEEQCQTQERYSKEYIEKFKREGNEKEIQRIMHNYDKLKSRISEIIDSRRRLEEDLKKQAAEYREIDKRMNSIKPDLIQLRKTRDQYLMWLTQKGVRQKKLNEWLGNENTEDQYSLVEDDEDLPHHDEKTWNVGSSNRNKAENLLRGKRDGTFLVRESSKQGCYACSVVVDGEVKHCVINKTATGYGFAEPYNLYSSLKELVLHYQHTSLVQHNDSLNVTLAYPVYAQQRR
Procedure summary: PI3Kα cellular assay: pAKT HTRF in T47D cells after EGF stimulation
Type: cell-based
Protocol conditions: T47D cells (PI3Kα H1047R), pAKT S473 HTRF, 1 hr compound, 20 ng/ml EGF 10 min
Item-by-item account of IC50

# annotated cases, reported IC50 shown
Cc1cc(C(C)Nc2ccccc2C)c2nc(N3CCOCC3)cc(=O)n2c1 (centres unmarked) [Compound 154] = > 2 µM
Cc1cc(C(C)Nc2ccccc2C(=O)O)c2nc(-c3ccc(C(=O)NO)cc3)cc(=O)n2c1 (centres unmarked) [Compound 487] = > 2 µM
Cc1cc(C(C)Nc2ccccc2C(=O)O)c2nc(C3CCC(NS(C)(=O)=O)CC3)c(C)c(=O)n2c1 (centres unmarked) [Compound 544] = > 2 µM
Cc1cc([C@H](C)Nc2ccccc2C(=O)O)c2nc([C@H]3CCOC3)cc(=O)n2c1 [Compound 539] = 0.5 to 2 µM
Cc1cc(C(C)Nc2ccccc2C(=O)O)c2nc(Nc3ccc4[nH]c(=O)[nH]c4c3)cc(=O)n2c1 (centres unmarked) [Compound 505] = > 2 µM

Req: Could you tell me which IC50 is on file for Cc1cc(C(C)Nc2ccccc2C(=O)O)c2nc(N3CC(Cl)C3)cc(=O)n2c1 (centres unmarked) [Compound 363] ?
Resp: 0.1 to 0.5 µM

Req: Could you tell me which IC50 is on file for Cc1cc(C(C)Nc2ccccc2C(=O)O)c2nc(N3CCOC[C@H]3C)cc(=O)n2c1 (some centres unmarked) [Compound 295] ?
Resp: 0.5 to 2 µM

Req: Could you tell me which IC50 is on file for Cc1cc([C@@H](C)Nc2ccccc2C(=O)O)c2nc(N3CCC(C)(C)CC3)cc(=O)n2c1 [Compound 361] ?
Resp: < 0.1 µM

Req: Could you tell me which IC50 is on file for Cc1cc(C(C)Nc2ccccc2C(N)=O)c2nc(-c3ccncc3)cc(=O)n2c1 (centres unmarked) [Compound 438] ?
Resp: > 2 µM

Req: Could you tell me which IC50 is on file for Cc1cc(C(C)Nc2ccccc2C(=O)O)c2nc(N3CCN(C(=O)CN)CC3)cc(=O)n2c1 (centres unmarked) [Compound 527] ?
Resp: > 2 µM

Req: Could you tell me which IC50 is on file for Cc1cc([C@H](C)Nc2ccccc2C(=O)O)c2nc(-c3ccc4nc(NC(=O)C5CC5)nn4c3)cc(=O)n2c1 [Compound 521] ?
Resp: > 2 µM

----------
Target system: PI3Kα H1047R (T47D cells) (Homo sapiens, UniProt P42336, H1047R)
Construct: endogenous in cells; host or cells: T47D cells
Procedure summary: PI3Kα cellular assay: pAKT HTRF in T47D cells after EGF stimulation
Format: cell-based
Protocol conditions: T47D cells (PI3Kα H1047R), pAKT S473 HTRF, 1 hr compound, 20 ng/ml EGF 10 min
pIC50: −log10 of the molar value.
Item-by-item account of pIC50

Cc1cc([C@@H](C)Nc2ccccc2)c2nc(-c3cc(C)c4oc(=O)[nH]c4c3)cc(=O)n2c1 (single isomer, unassigned) = < 5.70
Cc1cc([C@@H](C)Nc2ccccc2C(=O)O)c2nc(-c3ccc4[nH]c(=O)oc4c3)cc(=O)n2c1 = 6.30 to 7.00
Cc1cc([C@@H](C)Nc2ccccc2C(=O)O)c2nc(-c3ccc4nc(NC(=O)C5CC5)nn4c3)cc(=O)n2c1 = < 5.70
Cc1cc(C(C)Nc2ccccc2S(N)(=O)=O)c2nc(-c3cc(C)c4oc(=O)[nH]c4c3)cc(=O)n2c1 (stereo not drawn) [Compound 571] = < 5.70
CONC(=O)c1ccc(-c2cc(=O)n3cc(C)cc([C@@H](C)Nc4ccccc4C(=O)O)c3n2)cc1 = < 5.70

Req: Lab note: need pIC50 for Cc1cc([C@@H](C)Nc2ccccc2C(=O)O)c2nc(-c3ccc(C(=O)NO)cc3)cc(=O)n2c1 on PI3Kα H1047R (T47D cells) (Homo sapiens, UniProt P42336, H1047R), anyone have it?
Resp: < 5.70

----------
Target system: PI3Kα H1047R (T47D cells) (Homo sapiens, UniProt P42336, H1047R)
Construct: endogenous in cells; host or cells: T47D cells
Procedure summary: PI3Kα cellular assay: pAKT HTRF in T47D cells after EGF stimulation
Assay type: cell-based
Protocol conditions: T47D cells (PI3Kα H1047R), pAKT S473 HTRF, EGF stimulation
pIC50: −log10 of the molar value.
Outcome measure: pIC50

Cc1cc([C@@H](C)Nc2ccccc2C(=O)O)c2nc(-c3ccc4c(c3)CC(F)(F)C4)cc(=O)n2c1 = > 7.00
CCc1c(-c2ccc(F)cc2)nc2c([C@@H](C)Nc3ccccc3C(=O)O)cc(C)cn2c1=O = > 7.00
Cc1cc(C(C)Nc2ccccc2S(N)(=O)=O)c2nc(-c3cnc4c(c3)c(C)nn4C3CC3)c(C)c(=O)n2c1 (centres unmarked) = 6.30 to 7.00
Cc1cc([C@H](C)Nc2ccccc2S(N)(=O)=O)c2nc(-c3cccnc3)c(C)c(=O)n2c1 = 5.70 to 6.30

Then there is this molecule:
Req: Could you tell me which pIC50 is on file for Cc1cc([C@@H](C)NCc2cccnn2)c2nc(N3Cc4ccccc4C3)cc(=O)n2c1 ?
Resp: < 5.70

----------
Target system: PI3Kα H1047R (T47D cells) (Homo sapiens, UniProt P42336, H1047R)
Construct: endogenous in cells; host or cells: T47D cells
Procedure summary: PI3Kα cellular assay: pAKT HTRF in T47D cells after EGF stimulation
Assay type: cell-based
Protocol conditions: T47D cells (PI3Kα H1047R), pAKT S473 HTRF, EGF stimulation
pIC50: −log10 of the molar value.
Outcome measure: pIC50

Cc1cc([C@@H](C)Nc2ccccc2C(=O)O)c2nc(-c3ccc4c(c3)c(C)c(C)n4C)cc(=O)n2c1 [Compound 775] = > 7.00

Req: Lab note: need pIC50 for CCC(Nc1ccccc1S(N)(=O)=O)c1cc(C)cn2c(=O)cc(N3CCOCC3)nc12 (centres unmarked) [Compound 1159] on PI3Kα H1047R (T47D cells) (Homo sapiens, UniProt P42336, H1047R), anyone have it?
Resp: < 5.70

Req: Lab note: need pIC50 for Cc1cc([C@@H](C)Nc2ccccc2C(=O)O)c2nc(-c3ccc(C#N)nc3)c(C)c(=O)n2c1 (single isomer, unassigned) [Compound 975] on PI3Kα H1047R (T47D cells) (Homo sapiens, UniProt P42336, H1047R), anyone have it?
Resp: > 7.00

Req: Lab note: need pIC50 for Cc1cc([C@H](C)Nc2ccccc2C(=O)O)c2nc(-c3cc(C)c(F)c(C)c3)cc(=O)n2c1 [Compound 663] on PI3Kα H1047R (T47D cells) (Homo sapiens, UniProt P42336, H1047R), anyone have it?
Resp: < 5.70

Req: Lab note: need pIC50 for Cc1cc(C(C)Nc2ccccc2C(N)=O)c2nc(-c3ccnc(C4CC4)c3)c(C)c(=O)n2c1 (centres unmarked) [Compound 1090] on PI3Kα H1047R (T47D cells) (Homo sapiens, UniProt P42336, H1047R), anyone have it?
Resp: > 7.00

Req: Lab note: need pIC50 for Cc1cc([C@@H](C)Nc2ccccc2C(=O)O)c2nc(-c3cccc(F)c3)c(C)c(=O)n2c1 [Compound 1073] on PI3Kα H1047R (T47D cells) (Homo sapiens, UniProt P42336, H1047R), anyone have it?
Resp: < 5.70

Req: Lab note: need pIC50 for Cc1cc(C(C)Nc2ccccc2-c2ccnnc2)c2nc(N3Cc4ccccc4C3)c(C3CC3)c(=O)n2c1 (centres unmarked) [Compound 832] on PI3Kα H1047R (T47D cells) (Homo sapiens, UniProt P42336, H1047R), anyone have it?
Resp: 5.70 to 6.30

Req: Lab note: need pIC50 for CC(=O)N=S(C)(=O)c1ccccc1N[C@H](C)c1cc(C)cn2c(=O)cc(N3CCOCC3)nc12 (some centres unmarked) [Compound 827] on PI3Kα H1047R (T47D cells) (Homo sapiens, UniProt P42336, H1047R), anyone have it?
Resp: < 5.70

----------
Target system: PI3Kα H1047R (T47D cells) (Homo sapiens, UniProt P42336, H1047R)
Construct: endogenous in cells; host or cells: T47D cells
Procedure summary: PI3Kα cellular assay: pAKT HTRF in T47D cells after EGF stimulation
Type: cell-based
Protocol conditions: T47D cells (PI3Kα H1047R), pAKT S473 HTRF, EGF stimulation
Item-by-item account of IC50

# annotated cases, reported IC50 shown
Cc1cc([C@@H](C)Nc2ccccc2C(=O)O)c2nc(-c3ccc4snc(N)c4c3)cc(=O)n2c1 [Compound 809] = < 0.1 µM
Cc1cc([C@@H](C)Nc2ccccc2C(N)=O)c2nc(-c3cnc(C)c(Cl)c3)c(C)c(=O)n2c1 [Compound 1135] = 0.1 to 0.5 µM
Cc1cc([C@H](C)Nc2ccccc2C(=O)O)c2nc(-c3cccc(F)c3)c(C(C)C)c(=O)n2c1 [Compound 1278] = > 2 µM
Cc1cc([C@H](C)Nc2ccccc2C(=O)O)c2nc(-c3ccc(C4CCOCC4)nc3)c(C)c(=O)n2c1 [Compound 1147] = > 2 µM
Cc1cc([C@@H](C)Nc2ccccc2)c2nc(-c3ccc(F)cc3)c(C)c(=O)n2c1 [Compound 1123] = > 2 µM

Req: Could you tell me which IC50 is on file for C=CC(=O)Nc1ccc(C(=O)O)c(N[C@@H](C)c2cc(C)cn3c(=O)cc(N4CCOCC4)nc23)c1 [Compound 873] ?
Resp: > 2 µM

Req: Could you tell me which IC50 is on file for Cc1cc([C@H](C)Nc2ccccc2C(=O)O)c2nc(-c3ccc4c(c3)c(C(F)F)nn4C)cc(=O)n2c1 [Compound 808] ?
Resp: > 2 µM

Req: Could you tell me which IC50 is on file for Cc1cc(C(C)Nc2ccccc2C(=O)O)c2nc(N3C[C@@H](C)O[C@@H](C)C3)c(C)c(=O)n2c1 (some centres unmarked) [Compound 915] ?
Resp: 0.1 to 0.5 µM

Values compiled from patent US20260132129A1.
